Cited source for all entries: ChEMBL document CHEMBL1201862

tested on: RXF 393; assay: NCI tumour cell line growth inhibition, 48 h
The source made the active and inactive calls. No stated cut-off is given here; in the data, active = GI50 up to about 1.1 µM and inactive = higher.
test_readout: GI50

Entry C=C(C)[C@@H]1CC[C@]2(C)CC[C@]3(C)[C@H](CC[C@@H]4[C@@]5(C)CC[C@H](O)C(C)(C)[C@@H]5CC[C@]43C)[C@@H]12 : reported GI50 = ? 14 µM (inactive)

Entry O=C(O)C/N=C(\C(=N\CC(=O)O)c1ccccc1)c1ccccc1 : reported GI50 = ? > 100 µM (inactive)

Entry O=C(N/C(=C\c1cc(Cl)ccc1Cl)c1nc2cc(Cl)ccc2[nH]1)c1ccccc1 : reported GI50 = ? 15.4 µM (inactive)

Entry COc1cc2c([C@@H](OC(=O)c3ccccc3)c3ccc4c(c3)OCO4)nccc2c(OC)c1OC : reported GI50 = ? 20.2 µM (inactive)

Entry Cc1cc2cc3c(C)cc(=O)oc3c(C)c2o1 : reported GI50 = ? > 100 µM (inactive)

Entry C=C(C)[C@H]1C=C[C@@H](OC(C)=O)[C@@]2(COC(C)=O)[C@H](OC(=O)CCC)[C@H]3[C@@H](OC(C)=O)[C@@H](C)C[C@]3(O)C(=O)[C@@](C)(OC(C)=O)[C@H]12 : reported GI50 = ? > 100 µM (inactive)

Entry Fc1cc2nc3n(c2cc1F)C(c1c(Cl)cccc1Cl)SC3 (stereo not drawn) : reported GI50 = ? 14.9 µM (inactive)

Entry C/C(CC(=O)Nc1ccc(C)cc1C)=N/N=C(N)N : reported GI50 = ? > 100 µM (inactive)

Entry CC(C)(C)Nc1noc(=O)n1C(C)(C)C : reported GI50 = ? > 100 µM (inactive)

Entry O=c1[nH]c(Br)nc2[nH]nnc12 : reported GI50 = ? 35 µM (inactive)

Entry CCCCCCCSc1nc2c(C(=O)OCC)ncn2c2ccccc12 : reported GI50 = ? > 100 µM (inactive)

Entry CCCCOC(=O)C1C(c2ccc(Cl)cc2)NC(c2ccc(Cl)cc2)C(C(=O)OCCCC)S1(=O)=O (stereo not drawn) : reported GI50 = ? > 100 µM (inactive)

Entry O=c1[nH]nc(Cc2ccc([N+](=O)[O-])cc2)[nH]1 : reported GI50 = ? > 100 µM (inactive)

Entry COc1cc(/C=C2\C(=O)N(c3cccc(NC(C)=O)c3)C(c3ccccc3)S2(=O)=O)cc(OC)c1OC (stereo not drawn) : reported GI50 = ? > 100 µM (inactive)

Entry COC(=O)C(C/C=C(\C)c1ccc(Cl)cc1)C(C)=O (stereo not drawn) : reported GI50 = ? 26.7 µM (inactive)

Entry COC(=O)/C=C\C(C#N)(C#N)/N=C/c1cccs1 : reported GI50 = ? 2.51 µM (inactive)

Entry CC(O)c1ccc[n+](Cc2ccccc2)c1 (stereo not drawn) : reported GI50 = ? > 400 µM (inactive)

Entry O=C1c2ccccc2C(=O)N1/N=C1/SC(=N\c2ccccc2)/C(=N/c2ccccc2)N1c1ccccc1 : reported GI50 = ? 4.47 µM (inactive)

Entry O=C1c2ccccc2-c2c1c1ccccc1c(=O)n2-c1cccnc1 : reported GI50 = ? > 100 µM (inactive)

Entry O=C(NC1C=CCC2C(=O)N(c3ccccc3)C(=O)C12)OCc1ccccc1 (stereo not drawn) : reported GI50 = ? > 100 µM (inactive)

Entry Cc1ccc(S(=O)(=O)N2c3ccccc3[C@H]3CCc4c([nH]c5ccccc45)[C@H]32)cc1 : reported GI50 = ? > 100 µM (inactive)

Entry O=C(/C=C1/Nc2ccc([N+](=O)[O-])cc2N/C1=C/C(=O)c1ccc(Cl)cc1)c1ccc(Cl)cc1 : reported GI50 = ? 66.5 µM (inactive)

Entry CC1=C(C(=O)Nc2ccccc2C)C(c2ccco2)C(C(=O)Nc2ccccc2C)=C(C)N1C : reported GI50 = ? > 100 µM (inactive)

Entry CN(C)CCCNc1c(C#N)[n+]([O-])c2cc(Cl)ccc2[n+]1[O-] : reported GI50 = ? 21.2 µM (inactive)

Entry c1ccc2cc(CN3CCC(C4CCN(Cc5ccc6ccccc6c5)CC4)CC3)ccc2c1 : reported GI50 = ? 2.74 µM (inactive)

Entry Cn1cc(NC(=O)[C@H]2CCC(N)=N2)cc1C(=O)NCCC(=N)N : reported GI50 = ? > 100 µM (inactive)

Entry COc1ccc(-c2c3c(nc4nc(SCCc5ccccc5)nc(N)c24)CCCC3)cc1OC : reported GI50 = ? 24.9 µM (inactive)

Entry CN(C)CCCNc1c2c(=O)n(C)c(=O)nc-2n(C)c2ccccc12 : reported GI50 = ? 7.8 µM (inactive)

Entry CC(=O)NC1C(OC(C)C(=O)NC(C)C(=O)NC(CCC(=O)NCCCCCNc2ccc([N+](=O)[O-])c3[nH]c4ccccc4c(=O)c23)C(N)=O)C(O)C(CO)OC1(C)OCc1ccccc1 (stereo not drawn) : reported GI50 = ? 87.1 µM (inactive)

Entry COC(=O)[C@@]12OC[C@]34C([C@@H](O)C1O)[C@@]1(C)CC(=O)C(OC(=O)CC(C)C(F)(F)F)=C(C)C1C[C@H]3OC(=O)[C@H](O)[C@H]42 (stereo partly drawn) : reported GI50 = ? 4.62 µM (inactive)

Entry Cc1ccc(/N=N/C(=N\NC(=O)c2ccc(C)cc2)c2ccc(N(CCC#N)CCC#N)cc2C)cc1 : reported GI50 = ? 44.8 µM (inactive)

Entry Cc1cc(S(=O)(=O)Nc2n[nH]c(Nc3ccccc3)n2)c(S)cc1Cl : reported GI50 = ? > 10 µM (inactive)

Entry O=C(O)C1=CNC(C(=O)O)=NN1 : reported GI50 = ? > 100 µM (inactive)

Entry N#C/C(=C1\OC(=N)C(c2ccc(Cl)cc2Cl)C1=O)c1ccc(Cl)cc1Cl (stereo not drawn) : reported GI50 = ? > 100 µM (inactive)

Entry O=C1C=C(c2[nH]c3ccccc3c2C2=CC(=O)c3ccccc3C2=O)C(=O)c2ccccc21 : reported GI50 = ? 39.7 µM (inactive)

Entry c1ccc(C2=NCCc3cc4c(cc32)OCO4)cc1 : reported GI50 = ? > 100 µM (inactive)

Entry COC(=O)c1cc2cc(OC)c(OC)cc2cc(C(=O)OC)c1=O : reported GI50 = ? > 100 µM (inactive)

Entry CCOC(=O)c1cc(C2CCN(Cc3ccccc3)C2=S)c(C(=O)C=[N+]=[N-])[nH]1 (stereo not drawn) : reported GI50 = ? 31 µM (inactive)

----------
system: Malme-3M; experiment: NCI tumour cell line growth inhibition, 48 h
Calls of active or inactive are those of the source. Cut-off read from the data, not from the text of the source: active = GI50 up to about 1.1 µM and inactive = higher.
test_readout: GI50

Item: O=c1[nH]nc(Cc2ccc([N+](=O)[O-])cc2)[nH]1 Test system: Malme-3M Read-out: GI50 Value: ? > 100 µM (inactive)

Item: CN(C)CCCNc1c(C#N)[n+]([O-])c2cc(Cl)ccc2[n+]1[O-] Test system: Malme-3M Read-out: GI50 Value: ? 3.85 µM (inactive)

Item: C=C1[C@@H]2CCC(C)(C)[C@H]1CCC(=O)[C@@H]2C(=O)OC Test system: Malme-3M Read-out: GI50 Value: ? > 100 µM (inactive)

Item: CCCCN(CCCC)C(=O)C(=O)C(C)C(=O)CC (stereo unspecified) Test system: Malme-3M Read-out: GI50 Value: ? > 100 µM (inactive)

Item: CCOC(=O)/C=C\c1c(Cl)n(-c2ccccc2)c(=O)n(-c2ccccc2)c1=O Test system: Malme-3M Read-out: GI50 Value: ? 24.5 µM (inactive)

Item: COc1ccc(/C=C2\CCCc3ccccc3C2=O)cc1 Test system: Malme-3M Read-out: GI50 Value: ? 0.0174 µM (active)

Item: O=C(CC(NC(=O)OCc1ccccc1)C(=O)NC1Cc2ccccc2C1=O)OCc1ccccc1 (stereo unspecified) Test system: Malme-3M Read-out: GI50 Value: ? > 100 µM (inactive)

Item: c1ccc2cc(CN3CCC(C4CCN(Cc5ccc6ccccc6c5)CC4)CC3)ccc2c1 Test system: Malme-3M Read-out: GI50 Value: ? 1.19 µM (inactive)

Item: COc1ccc2c(c1OC)C(Br)CCC(Br)(Br)C2=O (stereo unspecified) Test system: Malme-3M Read-out: GI50 Value: ? 10.7 µM (inactive)

Item: Nc1ccc2ccc(-c3ccc[nH]3)nc2n1 Test system: Malme-3M Read-out: GI50 Value: ? > 100 µM (inactive)

Item: CC(=O)NC1=C(N)C(=O)c2ccccc2C1=O Test system: Malme-3M Read-out: GI50 Value: ? 21.3 µM (inactive)

----------
system: SNB-75; assay: NCI tumour cell line growth inhibition, 48 h
The source made the active and inactive calls. Rule as the data show it: active = GI50 up to about 1.1 µM and inactive = higher.
// classify into active, inactive

Which outcome was entered for the compound O=C(N/C(=C\c1cc(Cl)ccc1Cl)c1nc2cc(Cl)ccc2[nH]1)c1ccccc1 in this test? inactive

Which outcome was entered for the compound CC12CC(Br)(Br)C(=O)C3C1CCCC32 in this test? inactive

Which outcome was entered for the compound CCn1ncc2c(=O)n3ncn(-c4ccc(Br)cc4)c3nc21 in this test? inactive

Which outcome was entered for the compound CCN1CCC(O)(c2ccc(Cl)c(Cl)c2)C(C(=O)c2ccc(Cl)c(Cl)c2)C1 (stereo not given) in this test? inactive

Which outcome was entered for the compound COc1ccc(C(=CCC(C)C2CCC3[C@@H]4C(OC(C)=O)CC5CC(OC(C)=O)CC[C@]5(C)C4CC(OC(C)=O)[C@]23C)c2ccc(OC)cc2)cc1 (stereo not given in full) in this test? inactive

Which outcome was entered for the compound COc1ccc(/C=C2\N=C(c3ccccc3)N(NC3=NC(=O)CC(=O)N3)C2=O)cc1 in this test? inactive

Which outcome was entered for the compound COC(=O)c1ccccc1C1=C([N+](=O)[O-])C(c2cccc(Br)c2)C(C#N)=C(N)O1 (stereo not given) in this test? inactive

Which outcome was entered for the compound CCOC(=O)c1[nH]c(Br)c(-c2ccc(OC)c(OC)c2)c1Br in this test? active

Which outcome was entered for the compound CCOCCOCCOCc1nc(C#N)c(N)o1 in this test? inactive

Which outcome was entered for the compound Cc1nc2c(sc3nc4ccccc4n32)c(=O)[nH]1 in this test? inactive
